molecular target: human Werner helicase (WRN-BV08, Uniprot Q14191, amino acids 517-1235 with L1074F point mutation) (Homo sapiens, UniProt Q14191, L1074F); construct: Uniprot Q14191, amino acids 517-1235 with L1074F point mutation; TEV-cleavable 8×His (C, cleaved yes); made in house; host or cells: Sf9 insect cells (baculovirus); assay: WRN (BV08) ADP-Glo Assay; format: biochemical; settings: 0.15 nM WRN, 5 μM ATP, 0.1 nM DNA duplex, 15 min preincubation, 60 min at 25° C., pH 7.5, 1% DMSO; read-out: ADP-Glo_hWRN_IC50
Sequence (Q14191 with tags, fused parts or gaps L1074F limits assumed): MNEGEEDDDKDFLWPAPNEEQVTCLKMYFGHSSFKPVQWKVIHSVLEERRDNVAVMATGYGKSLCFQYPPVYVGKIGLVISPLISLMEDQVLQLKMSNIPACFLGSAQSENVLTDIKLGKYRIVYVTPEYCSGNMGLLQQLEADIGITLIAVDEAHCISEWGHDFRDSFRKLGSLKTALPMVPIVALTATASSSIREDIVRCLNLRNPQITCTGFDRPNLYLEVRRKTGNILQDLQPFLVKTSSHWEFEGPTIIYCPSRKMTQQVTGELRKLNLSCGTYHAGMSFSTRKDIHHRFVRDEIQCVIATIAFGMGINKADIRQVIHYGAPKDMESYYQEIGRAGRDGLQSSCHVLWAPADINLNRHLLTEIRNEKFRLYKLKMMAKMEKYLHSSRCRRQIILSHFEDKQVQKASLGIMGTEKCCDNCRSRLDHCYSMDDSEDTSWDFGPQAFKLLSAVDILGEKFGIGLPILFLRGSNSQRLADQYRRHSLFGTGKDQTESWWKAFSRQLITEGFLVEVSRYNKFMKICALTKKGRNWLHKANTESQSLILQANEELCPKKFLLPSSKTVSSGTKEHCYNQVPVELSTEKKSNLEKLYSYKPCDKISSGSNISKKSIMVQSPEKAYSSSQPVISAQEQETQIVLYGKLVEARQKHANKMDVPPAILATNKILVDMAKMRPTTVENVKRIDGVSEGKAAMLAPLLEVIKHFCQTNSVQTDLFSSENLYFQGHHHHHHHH
pIC50: −log10 of the molar value.
EXPERIMENTAL READOUT: pIC50

Worked set:
Which measured pIC50 value corresponds to CC(C)(O)c1cc(CN(C(=O)Cn2cc(-c3cccc(F)c3)cn2)C2C=CS(=O)(=O)C2)ccn1 (stereo not drawn) [I-59] ?
> 6.30

Which measured pIC50 value corresponds to CC(C)(O)c1cc(CN(C(=O)Cc2ccc(-c3ccc(Cl)cc3)cc2F)C2C=CS(=O)(=O)C2)ccn1 (stereo not drawn) [I-180] ?
5.30 to 6.30

Which measured pIC50 value corresponds to COc1cc(CN(C(=O)Cn2cc(-c3cccc(F)c3)cn2)C2C=CS(=O)(=O)C2)ccn1 (stereo not drawn) [I-54] ?
> 6.30

Which measured pIC50 value corresponds to CNC(=O)C(C(=O)N(Cc1ccnc(OC)c1)[C@@H]1C=CS(=O)(=O)C1)c1ccc(-c2ccc(F)c(F)c2)cc1F (single isomer, unassigned) [I-694] ?
> 6.30

Which measured pIC50 value corresponds to O=C(Cn1c(=O)n(C2=CCCCC2)c2ccccc21)N(Cc1ccncc1)C1C=CS(=O)(=O)C1 (stereo not drawn) [I-680] ?
< 4.30

Others:
Which measured pIC50 value corresponds to CC(C)(O)c1cc(CN(C(=O)Cn2cc(-c3ccc(Cl)cc3)cn2)C2C=CS(=O)(=O)C2)ccn1 (stereo not drawn) [I-58] ?
> 6.30

Which measured pIC50 value corresponds to O=C(Cc1ccc(S(F)(F)(F)(F)F)cc1)N(Cc1ccnc(C2(O)COC2)c1)C1C=CS(=O)(=O)C1 (stereo not drawn) [I-633] ?
4.30 to 5.00

Which measured pIC50 value corresponds to O=C(C1CC(c2ccncc2)=NO1)N(Cc1ccncc1)C1C=CS(=O)(=O)C1 (stereo not drawn) [I-621] ?
< 4.30

Which measured pIC50 value corresponds to COCC(C(=O)N(Cc1ccnc(C(C)(C)O)c1)C1C=CS(=O)(=O)C1)n1cc(-c2ccccc2)cn1 (stereo not drawn) [I-324] ?
4.30 to 5.00

Which measured pIC50 value corresponds to COc1cc(CN(C(=O)C(c2ccc(-c3ccc(F)c(F)c3)cc2F)n2cccn2)[C@@H]2C=CS(=O)(=O)C2)ccn1 (stereo partly drawn) [I-683] ?
> 6.30

Which measured pIC50 value corresponds to O=C(Cc1ccc(-n2cccc2)cc1)N(Cc1cnc2ccccc2c1)C1C=CS(=O)(=O)C1 (stereo not drawn) [I-296] ?
4.30 to 5.00

Which measured pIC50 value corresponds to COc1cc(CN(C(=O)C(OCC#N)c2ccc(-c3ccc(F)c(F)c3)cc2F)[C@@H]2C=CS(=O)(=O)C2)ccn1 (single isomer, unassigned) [I-686] ?
5.30 to 6.30

Which measured pIC50 value corresponds to CC(C)(O)c1cc(CN(C(=O)C2Cc3cc(-c4ccc(F)cc4)ccc3O2)C2C=CS(=O)(=O)C2)ccn1 (stereo not drawn) [I-298] ?
4.30 to 5.00

Which measured pIC50 value corresponds to O=C(Cn1ccc(-c2ccc(F)cc2)cc1=O)N(Cc1ccncc1)C1C=CS(=O)(=O)C1 (stereo not drawn) [I-147] ?
5.30 to 6.30

Which measured pIC50 value corresponds to COc1cc(CN(C(=O)C(c2ccc(-c3ccc(F)c(F)c3)cc2F)n2cc(C(C)(C)O)cn2)[C@@H]2C=CS(=O)(=O)C2)ccn1 (stereo partly drawn) [I-758] ?
5.30 to 6.30

Which measured pIC50 value corresponds to COc1cc(CN(C(=O)Cc2ccc(S(F)(F)(F)(F)F)cc2)C2C=CS(=O)(=O)C2)ncn1 (stereo not drawn) [I-600] ?
5.30 to 6.30

Which measured pIC50 value corresponds to CNC(=O)C(C(=O)N(Cc1ccnc(OC)c1)[C@@H]1C=CS(=O)(=O)C1)c1ccc(-c2ccc(F)c(F)c2)cc1F (stereo partly drawn) [I-688] ?
> 6.30

Which measured pIC50 value corresponds to O=C(c1ccc(-c2ccccc2)cn1)N(Cc1ccccc1)C1C=CS(=O)(=O)C1 (stereo not drawn) [I-487] ?
< 4.30

Which measured pIC50 value corresponds to N#CCOc1ccc(CC(=O)N(Cc2ccncc2)C2C=CS(=O)(=O)C2)cc1 (stereo not drawn) [I-432] ?
< 4.30

Which measured pIC50 value corresponds to O=C(Cn1ncc2cc(C(F)(F)F)ccc21)N(Cc1ccncc1)C1C=CS(=O)(=O)C1 (stereo not drawn) [I-590] ?
5.00 to 5.30
